# System: NCI-H23 lung
# TEST: NCI-60 one-dose screen, 48 h (100 = growth as untreated, 0 = no growth, -100 = all killed)
# STATED CONDITIONS: 10 µM unless noted
Compounds without any hit were thinned out: in the full panel of roughly 83,000, 20% have a hit. Calls of active or inactive are those of the source. How the source made its calls: active means growth percent below 10; inactive means the rest.

{"columns": ["MOLECULE", "growth"],
 "data": [
  ["O=S(=O)(c1ccccc1)n1ccc(-c2ccc3c(c2)CCO3)n1", "78.4% (inactive)"],
  ["COc1cc(/C=C2\\CCCC3=C2NC(C)=NC3c2cc(OC)c(OC)c(OC)c2)cc(OC)c1OC (stereo not given)", "33.9% (inactive)"],
  ["CCCC1OC(c2ccc(C(C)C)cc2)OCC1CC (stereo not given)", "98.8% (inactive)"],
  ["COc1cccc(NC(=O)Cn2cc3c(=O)oc4ccccc4c3n2)c1", "102% (inactive)"],
  ["CN1CCN(CCCOc2ccc3nc(Nc4ccc(C(F)(F)F)c(Cl)c4)ccc3c2)CC1", "38.1% (inactive)"]
]}

* * *

Measured growth values are reported for all entries that follow.
# System: MDA-MB-435 melanoma
# TEST: NCI-60 one-dose screen, 48 h (100 = growth as untreated, 0 = no growth, -100 = all killed)
# STATED CONDITIONS: 10 µM unless noted
Compounds without any hit were thinned out: in the full panel of roughly 83,000, 20% have a hit. Activity calls are given as the source filed them. Rule for the calls: active = growth percent below 10; inactive = the rest.

{"columns": ["MOL SMILES", "growth"],
 "data": [
  ["CN(C)C/C=C/C(=O)Nc1cc2c(Nc3ccc(F)c(Cl)c3F)ncnc2cc1OCCOC(F)F", "5.61% (active)"],
  ["C=C1C(=O)O[C@H]2[C@H]1CC/C(Cn1cc(-c3ccccc3C(F)(F)F)nn1)=C\\CC[C@@]1(C)O[C@@H]21", "4.12% (active)"],
  ["CCOP(=O)(CCN1CCN(CCCCCOc2cc3c(cc2OC)C(=O)N2CCC[C@H]2C=N3)CC1)OCC", "93.7% (inactive)"],
  ["O=C(Nc1ccc(Br)c(Cl)c1)c1cc(F)ccc1O", "-11.3% (active)"],
  ["CCCCCC(=O)OCc1ccccc1", "96.3% (inactive)"],
  ["CCCS(=O)(=O)c1nc(NC2CC2)cc(-c2ccc3c(ccn3C3CC(C)(C)NC(C)(C)C3)c2)n1", "11.5% (inactive)"],
  ["COc1cc(NS(C)(=O)=O)ccc1Nc1c2ccc([N+](=O)[O-])cc2nc2c(C)cccc12", "27.2% (inactive)"],
  ["CC/C=C\\C[C@H]1C/C=C2/C(=O)C(Cl)=C[C@@H]2C/C=C\\CCCC(=O)O1", "-74.8% (active)"],
  ["COc1ccc(OC)c(/C=C2\\Oc3cc(OCCN4CCCC4)ccc3C2=O)c1", "97% (inactive)"]
]}

* * *

# System: HOP-92 NSCLC
# TEST: NCI-60 one-dose screen, 48 h
# STATED CONDITIONS: 10 µM unless noted
This is part of a sample that, as a whole, favours compounds with a hit. Of some 83,000 tested, about 20% had one in any assay. Calls of active or inactive are those of the source. Rule for the calls: active = growth percent below 10; inactive = the rest.
Outcome codes: active, inactive

{"columns": ["COMPOUND", "DISCRETE LABEL"],
 "data": [
  ["CN(C)c1ccc(/C=C\\N=Nc2ccc(Br)cc2)cc1", "inactive"],
  ["COc1ccc(NC(=O)/N=c2\\oc3c(OC)cccc3cc2-c2cc3ccccc3[nH]2)cc1", "active"],
  ["O=C(Nc1cccc(Cl)c1)c1cc([N+](=O)[O-])ccc1O", "active"],
  ["COc1ccc(OC)c(-c2ccc(-c3ccccc3N)c3[nH]c4ccccc4c23)c1", "inactive"],
  ["COC(=O)[C@H]1[C@H](OC)[C@@H](OC(=O)/C=C/c2ccncc2)CC2CN3CCc4c([nH]c5cc(OC)ccc45)[C@@H]3C[C@@H]21 (stereo not given in full)", "active"],
  ["COc1ccc(/C=C/C(=O)c2ccc(NC(=O)CN3CCN(c4cc5c(cc4F)c(=O)c(C(=O)O)cn5C4CC4)CC3)cc2)cc1", "inactive"],
  ["COc1ccc(-n2c(C)cc(-c3ccccc3)c2C)cc1", "inactive"],
  ["COc1cc(NCCCN=C(N)NC(N)=NC(C)C)c2ncccc2c1", "inactive"],
  ["CC(C)C[C@H](NC(=O)[C@H](Cc1ccccc1)n1ccc(N2CCCCC2)cc1=O)B(O)O", "active"],
  ["c1ccc2c(c1)Oc1ccccc1C2C1c2ccccc2Oc2ccccc21", "inactive"],
  ["CC(=O)n1cc([C@H]2CC[C@H](c3cn(C(C)=O)c4ccccc34)c3c2[nH]c2ccccc32)c2ccccc21", "inactive"],
  ["O=c1[nH]c2ccccc2cc1-c1nnc(Cc2ccccc2)o1", "inactive"],
  ["CCCCCCCCCCCCOB(OCCCCCCCCCCCC)OCCCCCCCCCCCC", "inactive"],
  ["O=C(Nc1ccccc1)OCC1OCOC(COC(=O)Nc2ccccc2)C1OC(=O)Nc1ccccc1 (stereo not given)", "inactive"],
  ["Clc1ccc(-c2nc(-c3ccco3)cn3ccnc23)cc1", "inactive"],
  ["O=c1oc2cc(OS(=O)(=O)c3ccc(F)cc3)ccc2c2c1CCCCC2", "inactive"],
  ["COc1ccc(C(=O)c2cc(OC)c(OC)c(OC)c2)cc1/C=C/C(=O)c1ccc(OC)c(OC)c1", "inactive"],
  ["CC(=O)Nc1nc(C(=O)N2N=C(C)/C(=C/c3cccs3)C2=O)cs1", "inactive"],
  ["Cc1ccccc1C(=O)c1ccccc1C(=O)O", "inactive"],
  ["CC(=O)c1cc(C(=O)c2ccc3c(c2)Sc2ccccc2N3)c2cc(C)ccn12", "inactive"]
]}

* * *

# Test system: SF-268 CNS
# TEST: NCI-60 one-dose screen, 48 h
# STATED CONDITIONS: 10 µM unless noted
About 83,000 compounds went through this panel and 20% of them were active in at least one assay; those are over-represented in the sample as a whole. Calls of active or inactive are those of the source. The calls were made as follows: active = growth percent below 10; inactive = the rest.
Outcome codes: active, inactive

{"columns": ["COMPOUND", "DISCRETE LABEL"],
 "data": [
  ["COc1ccc(/C(=N/O)c2cc(OC)c(OC)c(OC)c2)c(OC)c1N", "inactive"],
  ["CCN(C(=O)c1cc2ncccc2[nH]1)[C@H]1CCC[C@@H](NCc2cccc(F)c2)C1", "inactive"],
  ["O=S(=O)(NCCNc1nccc(-c2c(-c3ccccc3)nc3sccn23)n1)c1ccc(O)cc1", "inactive"],
  ["C=C1C(=O)O[C@H]2[C@H]1CC/C(Cn1cc(-c3ccsc3)nn1)=C\\CC[C@@]1(C)O[C@@H]21", "active"],
  ["COc1ccc(/C=C/C(=O)c2ccc(B(O)O)cc2)cc1O", "inactive"],
  ["CCn1cc(C(=O)O)c(=O)c2cc(F)c(N3CCN(S(=O)(=O)c4ccc(OC)c(OC)c4)CC3)cc21", "inactive"],
  ["CCCCCCCCCCn1cc[n+](C)c1", "inactive"],
  ["CCOC(=O)C1=C(CSC(=S)N(C2CCCCC2)C2CCCCC2)N(C)C(=O)NC1c1ccccc1 (centres undefined)", "inactive"],
  ["Cn1c(=O)c2c(nc3n2CCN(CCc2ccc(OCCN4CCOCC4)cc2)C3)n(C)c1=O", "inactive"],
  ["O=C(/C=C/CN1CCOCC1)Nc1cc2c(Nc3ccc(F)c(Cl)c3F)ncnc2cc1OCCOC(F)F", "inactive"],
  ["COc1cc(Br)c(OC)cc1Br", "inactive"],
  ["COc1ccc(/C=C/C(=O)c2ccc(NC(=O)CN3CCN(c4cc5c(cc4F)c(=O)c(C(=O)O)cn5C4CC4)CC3)cc2)cc1", "inactive"],
  ["Cc1ccc2c(c1)C(=O)C(c1c(-c3[nH]c(=O)c4ccc(C)cc4c3O)c(O)c3ccccc3c1O)=NC2=O", "active"],
  ["Clc1nc(Cl)c2ncn(C/C=C/Cn3cnc4c(Cl)nc(Cl)nc43)c2n1", "inactive"],
  ["CCCCCCCCCN1C(=O)/C(=c2\\sc3n(c2=O)C2C(NN=3)N(CC)C(=O)N2CC)c2ccccc21 (centres undefined)", "inactive"],
  ["CC1=NN2C(=NC3=C(CCC/C3=C\\c3ccc(Cl)cc3)C2c2ccc(Cl)cc2)S1 (centres undefined)", "inactive"],
  ["CCCS(=O)(=O)c1nc(NC2CC2)cc(-c2ccc3c(ccn3C3CC(C)(C)NC(C)(C)C3)c2)n1", "active"],
  ["CCCCCCc1nc2c(c(C)nn2-c2ccccc2)c2c1CCCCC2", "inactive"],
  ["Nc1ccccc1C#C/C=C\\C#Cc1cccc(O)c1", "inactive"],
  ["Clc1ccc(/C=C/c2nc(N3CCOCC3)c3nc(Cl)c(Cl)cc3n2)cc1", "inactive"],
  ["COc1cc(NCCN=C(N)NC(N)=NC(C)C)c2ncccc2c1", "inactive"],
  ["C=C1C(=O)O[C@H]2[C@H]1CC/C(COC(=O)NCc1ccc(OC)cc1)=C\\CC[C@@]1(C)O[C@@H]21", "inactive"],
  ["FC(F)(F)c1cccc(-n2nnc3cnc(Nc4ccc(N5CCCCC5)cc4)nc32)c1", "inactive"],
  ["CC(C(=O)n1cc(-c2ccccc2)c(-c2ccccc2)c1)c1ccccc1 (centres undefined)", "inactive"],
  ["Nc1c(C(=O)Nc2cccc(Cl)c2Cl)sc2nc3c(cc12)C(=O)CCC3", "inactive"],
  ["Nc1nc(-c2ccccc2)cs1", "inactive"],
  ["O=[N+]([O-])c1ccc(S(=O)(=O)N2CCN(c3ccnc4cc(Cl)ccc34)CC2)c([N+](=O)[O-])c1", "inactive"],
  ["CCC(c1ccc(OC)cc1)C(CC)c1ccc(O)c(CN2CCCC2)c1 (centres undefined)", "inactive"],
  ["CC(C)N(Cc1ccc(CN(C(=O)CCl)C(C)C)cc1)C(=O)CCl", "active"],
  ["c1ccc([P+](CCC[P+](c2ccccc2)(c2ccccc2)c2ccccc2)(c2ccccc2)c2ccccc2)cc1", "inactive"],
  ["CC/C=C\\C/C=C\\C[C@H](O)C/C=C1/C(=O)C=C[C@H]1C/C=C\\CCC(=O)OC", "inactive"],
  ["CC(Br)C(O)c1cc2c(cc1Br)OCO2 (centres undefined)", "inactive"],
  ["CN1C(=O)[C@H]2c3c1cccc3[C@@]13NC(=O)O[C@H]1[C@H](CCC3(C)C)C2(C)C", "inactive"],
  ["Cc1cc2c(c(=O)o1)C(c1ccc(OC(=O)N3CCOCC3)cc1)C(C#N)=C(N)O2 (centres undefined)", "inactive"],
  ["Cc1ccc(OCCn2c(C)nn(-c3ccc(Cl)cc3)c2=O)cc1", "inactive"],
  ["CCN1C(=O)N(CC)C2Nn3c(s/c(=C4\\C(=O)N(C5CCCC5)c5ccccc54)c3=O)=NC21 (centres undefined)", "inactive"],
  ["COc1ccc(C(=O)c2cc(OC)c(OC)c(OC)c2)cc1/C=C/C(=O)c1ccc2c(c1)OCO2", "active"],
  ["COc1cc(OC)c(C(=O)/C=C/c2cccc(C#N)c2)c(OC)c1", "inactive"],
  ["COc1cccc(C2CC(=O)Nc3c2c(C)nn3-c2nc3ccccc3[nH]2)c1OC (centres undefined)", "inactive"]
]}
